Every entry's value here was drawn from ChEMBL document CHEMBL4819019.

Assay: Cytotoxicity against human HEK293 cells assessed as cell viability measured after 72 hrs by MTT assay
Type: cell-based
endpoint name: CC50 at 72 h

[Q] Find the recorded CC50 at 72 h belonging to CCCCCCCCCCCCCC(=O)OCC[N+](C)(C)Cc1cnc(C)c2c1COC(C)(C)O2.[Cl-] and report it.
[A] 0.17 µg/mL

[Q] Find the recorded CC50 at 72 h belonging to CCCCCCCCCCCCCC(=O)OCC[N+](C)(C)Cc1cnc(C)c2c1COC(CCC)O2.[Cl-] (stereo unspecified) and report it.
[A] 1 µg/mL

[Q] Find the recorded CC50 at 72 h belonging to CCCCCCCCCCCCCC(=O)NCC[N+](C)(C)Cc1cnc(C)c2c1COC(C)(C)O2.[Cl-] and report it.
[A] 1.18 µg/mL

***
[Q] Find the recorded CC50 at 72 h belonging to CCCCCCCCCCCCCC(=O)NCC[N+](C)(C)Cc1cnc(C)c2c1COC(C)(CCC)O2.[Cl-] (stereo unspecified) and report it.
[A] 1.16 µg/mL

[Q] Find the recorded CC50 at 72 h belonging to CCCCCCCCCCCCCC(=O)NCCC[N+](C)(C)Cc1ccccc1.[Cl-] and report it.
[A] 6.08 µg/mL

[Q] Find the recorded CC50 at 72 h belonging to CCCCCCCCCCCCCC(=O)OCC[N+](C)(C)Cc1nc(C)c2c(c1CO)COC(C)(C)O2.[Cl-] and report it.
[A] 0.88 µg/mL

[Q] Find the recorded CC50 at 72 h belonging to CCCCCCCCCCCC(=O)NCC[N+](C)(C)Cc1cnc(C)c2c1COC(C)(CCC)O2.[Cl-] (stereo unspecified) and report it.
[A] 0.15 µg/mL

[Q] Find the recorded CC50 at 72 h belonging to [H]/N=C(\N/C(=N/[H])NCCCCCCNC(=N)NC(=N)Nc1ccc(Cl)cc1)Nc1ccc(Cl)cc1 and report it.
[A] 7.28 µg/mL

[Q] Find the recorded CC50 at 72 h belonging to CCCCCCCCCCCCCC(=O)NCCC[N+](C)(C)Cc1cnc(C)c2c1COC(C)(C)O2.[Cl-] and report it.
[A] 1.61 µg/mL

[Q] Find the recorded CC50 at 72 h belonging to CCCCCCCCCCCC(=O)OCCC[N+](C)(C)Cc1cnc(C)c2c1COC(CCC)O2.[Cl-] (stereo unspecified) and report it.
[A] 2.15 µg/mL

[Q] Find the recorded CC50 at 72 h belonging to CCCCCCCCCCCCCC(=O)NCC[N+](C)(C)Cc1nc(C)c2c(c1CO)COC(C)(C)O2.[Cl-] and report it.
[A] 1.32 µg/mL

====

Recorded MIC for the following molecules
Test system: Staphylococcus aureus
Assay: Antibacterial activity against clinical isolate methicillin-resistant Staphylococcus aureus 1131 measured after 24 hrs by broth microdilution method
Format: functional
Answer in µg/mL, number only, no unit symbol.

Solved entries (count: 9):
[Q] Give the reported MIC for CCCCCCCCCCCCCC(=O)NCC[N+](C)(C)Cc1cnc(C)c2c1COC(C)(CCC)O2.[Cl-] (stereo not given) (system: Staphylococcus aureus).
[A] 2

[Q] Give the reported MIC for CCCCCCCCCCCCCC(=O)NCCC[N+](C)(C)Cc1ccccc1.[Cl-] [MIRAMISTIN] (system: Staphylococcus aureus).
[A] 32

[Q] Give the reported MIC for CCCCCCCCCCCC(=O)OCCC[N+](C)(C)Cc1cnc(C)c2c1COC(CCC)O2.[Cl-] (stereo not given) (system: Staphylococcus aureus).
[A] 16

[Q] Give the reported MIC for CCCCCCCCCCCCCC(=O)NCC[N+](C)(C)Cc1cnc(C)c2c1COC(C)(C)O2.[Cl-] (system: Staphylococcus aureus).
[A] 16

[Q] Give the reported MIC for CCCCCCCCCCCCCCCCCC(=O)NCCC[N+](C)(C)Cc1cnc(C)c2c1COC(C)(C)O2.[Cl-] (system: Staphylococcus aureus).
[A] 16

[Q] Give the reported MIC for CCCCCCCCCCCCCC(=O)OCC[N+](C)(C)Cc1nc(C)c2c(c1CO)COC(C)(C)O2.[Cl-] (system: Staphylococcus aureus).
[A] 4

[Q] Give the reported MIC for CCCCCCCCCCCC(=O)NCC[N+](C)(C)Cc1cnc(C)c2c1COC(C)(CCC)O2.[Cl-] (stereo not given) (system: Staphylococcus aureus).
[A] 4

[Q] Give the reported MIC for CCCCCCCCCCCCCC(=O)OCC[N+](C)(C)Cc1cnc(C)c2c1COC(C)(C)O2.[Cl-] (system: Staphylococcus aureus).
[A] 16

[Q] Give the reported MIC for CCCCCCCCCCCCCC(=O)NCC[N+](C)(C)Cc1nc(C)c2c(c1CO)COC(C)(C)O2.[Cl-] (system: Staphylococcus aureus).
[A] 4

Next item in the queue.
[Q] Give the reported MIC for CCCCCCCCCCCCCC(=O)OCC[N+](C)(C)Cc1cnc(C)c2c1COC(CCC)O2.[Cl-] (stereo not given) (system: Staphylococcus aureus).
[A] 4
